Each recorded value in this set is attributed to patent US20220324969A1.

target: CD33 (Sino Biological, Cat #12238-H08H) (UniProt P20138 18-259); experiment: BLI, IgG captured on anti-human Fc sensor, 50 nM CD33, pH 7.4 vs pH 5.4
Sequence (P20138 18-259 limits assumed): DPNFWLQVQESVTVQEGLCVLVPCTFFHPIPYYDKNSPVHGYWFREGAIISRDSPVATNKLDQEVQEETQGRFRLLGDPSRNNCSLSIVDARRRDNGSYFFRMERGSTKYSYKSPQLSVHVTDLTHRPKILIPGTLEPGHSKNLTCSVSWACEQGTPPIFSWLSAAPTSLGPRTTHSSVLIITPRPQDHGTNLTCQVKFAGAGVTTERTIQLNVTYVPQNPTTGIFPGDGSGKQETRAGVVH
RESULT_TYPE: binding result

| BINDER | RESULT |
| --- | --- |
| MYT2630 (antibody, V domains shown, IgG; IMGN779 VL variant #14 (N37H)) VH: QVQLQQPGAEVVKPGASVKMSCKASGYTFTSYYIHWIKQTPGQGLEWVGVIYPGNDDISYNQKFQGKATLTADKSSTTAYMQLSSLTSEDSAVYYCAREVRLRYFDVWGQGTTVTVSS VL: EIVLTQSPGSLAVSPGERVTMSCKSSQSVFFSSSQKHYLAWYQQIPGQSPRLLIYWASTRESGVPDRFTGSGSGTDFTLTISSVQPEDLAIYYCHQYLSSRTFGQGTKLEIK | binds |
| MYT2654 (antibody, V domains shown, IgG; vadastuximab VL variant #2 (A25H)) VH: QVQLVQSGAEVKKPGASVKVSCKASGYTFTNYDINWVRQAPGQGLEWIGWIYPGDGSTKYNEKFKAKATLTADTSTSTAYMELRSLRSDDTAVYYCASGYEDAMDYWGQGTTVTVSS VL: DIQMTQSPSSLSASVGDRVTINCKHSQDINSYLSWFQQKPGKAPKTLIYRANRLVDGVPSRFSGSGSGQDYTLTISSLQPEDFATYYCLQYDEFPLTFGGGTKVEIK | binds |
| MYT1615 (antibody, V domains shown, IgG; gemtuzumab VL variant #26 (K96H)) VH: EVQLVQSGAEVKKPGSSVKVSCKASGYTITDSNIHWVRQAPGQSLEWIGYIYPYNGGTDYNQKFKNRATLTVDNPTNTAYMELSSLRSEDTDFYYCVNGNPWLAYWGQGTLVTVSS VL: DIQLTQSPSTLSASVGDRVTITCRASESLDNYGIRFLTWFQQKPGKAPKLLMYAASNQGSGVPSRFSGSGSGTEFTLTISSLQPDDFATYYCQQTHEVPWSFGQGTKVEVK | binds |
